Reference source: BigSolDB 2.1

- condition-description: in ethanol, 278.15 K
measured-property: solubility (mole fraction)
Answer as a number with no unit attached.

Query block: Consider the compound shown here: `Cc1nnc(C(C)C)n1[C@@H]1C[C@H]2CC[C@@H](C1)N2CC[C@H](NC(=O)C1CCC(F)(F)CC1)c1ccccc1` What is its recorded solubility (mole fraction)?
Result block: 0.000264

---

- condition-description: in n-propanol, 323.15 K
measured-property: solubility (mole fraction)
Answer as a number with no unit attached.

Query block: Consider the compound shown here: `Cc1nnc(C(C)C)n1[C@@H]1C[C@H]2CC[C@@H](C1)N2CC[C@H](NC(=O)C1CCC(F)(F)CC1)c1ccccc1` What is its recorded solubility (mole fraction)?
Result block: 0.00395
